# Test Method Notes: Cytotoxicity against mouse EAC cells assessed as nonviable cell at 100 ug/mL relative to doxorubicin
# Format: functional, Ehrlich
Recorded Activity by entry

{"columns": ["Compound", "Activity (%)"],
 "data": [
  ["COc1cc(N2C(N)=C(C#N)C(c3c(O)ccc4ccccc34)C3=C2CC(C)(C)CC3=O)cc(OC)c1OC (centres undefined)", 90],
  ["COc1ccccc1C1C(C#N)=C(N)N(c2cc(OC)c(OC)c(OC)c2)C2=C1C(=O)CC(C)(C)C2 (centres undefined)", 100],
  ["COc1cccc2c1C(=O)c1c(O)c3c(c(O)c1C2=O)C[C@@](O)(C(=O)CO)C[C@@H]3O[C@H]1C[C@H](N)[C@H](O)[C@H](C)O1", 100],
  ["COc1cc(N2C(N)=C(C#N)C(c3ccc4c(c3)OCO4)C3=C2CC(C)(C)CC3=O)cc(OC)c1OC (centres undefined)", 40]
]}

====

# Test Method Notes: Cytotoxicity against mouse EAC cells assessed as nonviable cell at 10 ug/mL relative to doxorubicin
# Type: functional, Ehrlich

{"columns": ["Compound", "Activity / %"],
 "data": [
  ["COc1cc(N2C(N)=C(C#N)C(c3ccc4c(c3)OCO4)C3=C2CC(C)(C)CC3=O)cc(OC)c1OC (centres undefined)", 10],
  ["COc1cc(N2C(N)=C(C#N)C(c3ccc(OC)c(OC)c3OC)C3=C2CC(C)(C)CC3=O)cc(OC)c1OC (centres undefined)", 20],
  ["COc1cc(N2C(N)=C(C#N)C(c3ccc(O)cc3)C3=C2CC(C)(C)CC3=O)cc(OC)c1OC (centres undefined)", 10],
  ["COc1cc(C2C(C#N)=C(N)N(c3cc(OC)c(OC)c(OC)c3)C3=C2C(=O)CC(C)(C)C3)ccc1O (centres undefined)", 10]
]}

====

# Test Method Notes: Cytotoxicity against mouse EAC cells assessed as nonviable cell at 100 ug/mL relative to doxorubicin
# Format: functional, Ehrlich

{"columns": ["Compound", "Result Units", "Activity"],
 "data": [
  ["COc1cc(N2C(N)=C(C#N)C(c3ccc(OC)c4ccccc34)C3=C2CC(C)(C)CC3=O)cc(OC)c1OC (stereo not drawn)", "%", 40],
  ["COc1cc(N2C(N)=C(C#N)C(c3ccc(C)o3)C3=C2CC(C)(C)CC3=O)cc(OC)c1OC (stereo not drawn)", "%", 50],
  ["COc1cc(N2C(N)=C(C#N)C(c3ccc([N+](=O)[O-])cc3)C3=C2CC(C)(C)CC3=O)cc(OC)c1OC (stereo not drawn)", "%", 80],
  ["COc1ccc(C2C(C#N)=C(N)N(c3cc(OC)c(OC)c(OC)c3)C3=C2C(=O)CC(C)(C)C3)cc1 (stereo not drawn)", "%", 15],
  ["COc1cc(N2C(N)=C(C#N)C(/C=C/c3ccccc3)C3=C2CC(C)(C)CC3=O)cc(OC)c1OC (stereo not drawn)", "%", 40],
  ["COc1cc(N2C(N)=C(C#N)C(c3ccccc3O)C3=C2CC(C)(C)CC3=O)cc(OC)c1OC (stereo not drawn)", "%", 10],
  ["COc1cc(N2C(N)=C(C#N)C(c3ccc(O)cc3)C3=C2CC(C)(C)CC3=O)cc(OC)c1OC (stereo not drawn)", "%", 100],
  ["COc1cc(N2C(N)=C(C#N)C(c3cccs3)C3=C2CC(C)(C)CC3=O)cc(OC)c1OC (stereo not drawn)", "%", 20]
]}
